molecular target: Metabotropic glutamate receptor 2 (Rattus norvegicus); test: Agonist activity at rat mGlu2 receptor expressed in HEK293 cells assessed as IP1 accumulation by IP-One functional assay; format: cell-based
Sequence (P31421 whole entry): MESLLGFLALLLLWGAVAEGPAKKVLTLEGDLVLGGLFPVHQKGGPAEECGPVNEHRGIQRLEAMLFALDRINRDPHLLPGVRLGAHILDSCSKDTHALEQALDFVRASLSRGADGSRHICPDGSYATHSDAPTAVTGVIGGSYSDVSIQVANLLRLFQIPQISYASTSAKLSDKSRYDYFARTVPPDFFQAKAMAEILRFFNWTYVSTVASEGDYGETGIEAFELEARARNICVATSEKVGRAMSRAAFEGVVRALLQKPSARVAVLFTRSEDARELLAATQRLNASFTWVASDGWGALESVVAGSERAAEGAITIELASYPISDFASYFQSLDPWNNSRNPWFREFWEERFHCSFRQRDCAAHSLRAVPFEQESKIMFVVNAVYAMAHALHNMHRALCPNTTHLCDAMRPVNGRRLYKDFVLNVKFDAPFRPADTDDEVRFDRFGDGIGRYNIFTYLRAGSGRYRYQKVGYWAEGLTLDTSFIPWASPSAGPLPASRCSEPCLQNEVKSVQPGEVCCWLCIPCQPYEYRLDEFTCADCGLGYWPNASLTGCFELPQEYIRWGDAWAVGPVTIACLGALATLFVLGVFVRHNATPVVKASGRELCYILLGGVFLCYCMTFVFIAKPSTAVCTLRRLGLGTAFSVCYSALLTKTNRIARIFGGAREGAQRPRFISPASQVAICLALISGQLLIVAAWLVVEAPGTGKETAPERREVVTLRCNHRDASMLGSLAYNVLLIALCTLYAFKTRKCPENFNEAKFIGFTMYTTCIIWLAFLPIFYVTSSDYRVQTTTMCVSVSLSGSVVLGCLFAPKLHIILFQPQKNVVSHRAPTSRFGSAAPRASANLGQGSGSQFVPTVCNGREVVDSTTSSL
pEC50: −log10 of the molar value.
Measured endpoint: pEC50

P: N[C@@H](C[C@@H](CCC(=O)O)C(=O)O)C(=O)O
Q: N[C@@H](C[C@]1(C(=O)O)C[C@H]1C(=O)O)C(=O)O
Ask: // pick min by pEC50: P , Q Your choice should be expressed through its label.
Result: Q

---

molecular target: Metabotropic glutamate receptor 4 (Rattus norvegicus, UniProt P31423); assay: Agonist activity at rat mGlu4 receptor expressed in HEK293 cells assessed as IP1 accumulation by IP-One functional assay; assay type: cell-based
Sequence (P31423 whole entry): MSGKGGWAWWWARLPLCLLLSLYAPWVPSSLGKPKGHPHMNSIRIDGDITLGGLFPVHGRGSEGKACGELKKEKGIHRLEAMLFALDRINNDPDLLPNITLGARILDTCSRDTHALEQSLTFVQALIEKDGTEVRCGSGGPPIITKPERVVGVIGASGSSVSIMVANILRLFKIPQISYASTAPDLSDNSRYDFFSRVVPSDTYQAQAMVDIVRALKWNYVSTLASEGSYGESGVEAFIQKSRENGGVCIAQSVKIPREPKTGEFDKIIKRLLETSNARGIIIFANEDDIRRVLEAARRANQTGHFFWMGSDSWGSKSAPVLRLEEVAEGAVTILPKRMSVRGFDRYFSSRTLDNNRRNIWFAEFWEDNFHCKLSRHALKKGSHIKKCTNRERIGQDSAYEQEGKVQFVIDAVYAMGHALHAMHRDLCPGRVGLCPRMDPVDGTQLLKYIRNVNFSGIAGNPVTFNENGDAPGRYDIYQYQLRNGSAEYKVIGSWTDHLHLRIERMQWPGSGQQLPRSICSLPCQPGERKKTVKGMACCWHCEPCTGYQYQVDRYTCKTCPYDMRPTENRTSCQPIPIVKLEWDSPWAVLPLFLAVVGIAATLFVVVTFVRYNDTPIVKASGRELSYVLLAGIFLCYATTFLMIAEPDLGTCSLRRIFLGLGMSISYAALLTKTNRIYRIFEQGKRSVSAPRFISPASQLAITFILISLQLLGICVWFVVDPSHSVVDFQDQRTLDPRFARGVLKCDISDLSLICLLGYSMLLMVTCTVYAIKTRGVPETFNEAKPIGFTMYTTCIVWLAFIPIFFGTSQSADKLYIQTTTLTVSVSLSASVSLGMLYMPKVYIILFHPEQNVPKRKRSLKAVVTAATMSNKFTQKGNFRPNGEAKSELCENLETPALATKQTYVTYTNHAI
pEC50: −log10 of the molar value.
Measured endpoint: pEC50

1: N[C@@H](CCC(=O)O)C(=O)O [GLUTAMIC ACID]
2: N[C@@H](C[C@@]1(C(=O)O)C[C@@H]1C(=O)O)C(=O)O
3: N[C@@H](C[C@]1(C(=O)O)C[C@H]1C(=O)O)C(=O)O
Ask: Reorder the records above by pEC50 so that values decrease. # format: label list in the order the request specifies
Result: 3, 2, 1

---

biological target: Metabotropic glutamate receptor 3 (Rattus norvegicus, UniProt P31422); experiment: Agonist activity at rat mGlu3 receptor by FRET based mGlu sensor assay
Sequence (P31422 whole entry): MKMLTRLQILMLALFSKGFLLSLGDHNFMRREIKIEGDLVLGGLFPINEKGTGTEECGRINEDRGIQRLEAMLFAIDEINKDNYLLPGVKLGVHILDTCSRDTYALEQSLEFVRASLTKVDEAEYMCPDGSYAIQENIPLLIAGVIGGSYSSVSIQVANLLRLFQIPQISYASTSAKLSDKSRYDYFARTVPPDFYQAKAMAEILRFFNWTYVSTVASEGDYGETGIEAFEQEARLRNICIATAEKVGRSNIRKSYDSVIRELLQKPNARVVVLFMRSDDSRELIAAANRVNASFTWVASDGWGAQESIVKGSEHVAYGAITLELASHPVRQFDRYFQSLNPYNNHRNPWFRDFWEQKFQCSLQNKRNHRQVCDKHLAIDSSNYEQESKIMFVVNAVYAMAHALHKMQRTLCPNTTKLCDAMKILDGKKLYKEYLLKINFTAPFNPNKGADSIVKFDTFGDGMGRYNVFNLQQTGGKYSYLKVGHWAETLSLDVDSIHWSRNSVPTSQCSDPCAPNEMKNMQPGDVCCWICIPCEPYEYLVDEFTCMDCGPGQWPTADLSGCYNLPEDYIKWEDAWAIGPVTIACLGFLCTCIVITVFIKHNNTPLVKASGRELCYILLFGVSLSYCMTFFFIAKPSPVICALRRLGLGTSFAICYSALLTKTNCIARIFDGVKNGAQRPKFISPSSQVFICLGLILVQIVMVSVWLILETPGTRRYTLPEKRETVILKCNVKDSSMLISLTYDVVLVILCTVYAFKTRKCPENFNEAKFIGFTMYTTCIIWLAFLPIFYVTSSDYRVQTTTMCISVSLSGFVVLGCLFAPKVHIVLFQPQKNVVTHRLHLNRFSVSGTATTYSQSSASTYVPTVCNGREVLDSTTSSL
pEC50: −log10 of the molar value.
// reported pEC50 per item

1) N[C@H](C(=O)O)C1[C@@H](C(=O)O)[C@@H]1C(=O)O (some centres not stated) ... 7.10
2) N[C@@H](C[C@]1(C(=O)O)C[C@H]1C(=O)O)C(=O)O ... < 3.00

// next item, pEC50 requested
// pEC50 value for N[C@@H](CCC(=O)O)C(=O)O : 5.47

---

molecular target: Metabotropic glutamate receptor 6 (Rattus norvegicus, UniProt P35349); test: Agonist activity at rat mGlu6 receptor expressed in HEK293 cells assessed as IP1 accumulation by IP-One functional assay
Sequence (P35349 whole entry): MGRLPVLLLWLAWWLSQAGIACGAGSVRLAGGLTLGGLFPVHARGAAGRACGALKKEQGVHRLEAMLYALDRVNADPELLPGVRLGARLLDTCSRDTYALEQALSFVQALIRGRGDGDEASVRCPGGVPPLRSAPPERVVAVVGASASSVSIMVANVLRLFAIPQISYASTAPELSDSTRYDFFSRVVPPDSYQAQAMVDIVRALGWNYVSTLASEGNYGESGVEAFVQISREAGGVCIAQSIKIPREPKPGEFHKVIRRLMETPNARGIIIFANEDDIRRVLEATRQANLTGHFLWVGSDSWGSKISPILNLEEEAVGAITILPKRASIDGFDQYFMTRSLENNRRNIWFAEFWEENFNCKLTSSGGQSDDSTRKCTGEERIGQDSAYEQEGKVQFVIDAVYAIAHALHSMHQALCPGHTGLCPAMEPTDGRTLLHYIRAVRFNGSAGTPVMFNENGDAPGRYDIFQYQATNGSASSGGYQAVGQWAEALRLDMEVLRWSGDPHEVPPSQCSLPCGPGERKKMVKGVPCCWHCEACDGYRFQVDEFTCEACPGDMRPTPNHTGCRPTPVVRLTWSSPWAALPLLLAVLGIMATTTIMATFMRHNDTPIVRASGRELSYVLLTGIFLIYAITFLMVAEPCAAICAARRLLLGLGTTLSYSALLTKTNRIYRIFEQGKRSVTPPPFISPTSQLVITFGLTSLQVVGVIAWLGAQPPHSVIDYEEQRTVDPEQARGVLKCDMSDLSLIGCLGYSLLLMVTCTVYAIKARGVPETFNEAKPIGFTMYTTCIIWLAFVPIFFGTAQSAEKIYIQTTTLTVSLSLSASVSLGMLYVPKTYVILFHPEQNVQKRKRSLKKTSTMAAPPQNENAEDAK
Measured endpoint: EC50 (µM)

Guide cases for EC50, answers given:
1. N[C@@H](CCP(=O)(O)O)C(=O)O ... 1.91
2. N[C@@H](C[C@@]1(C(=O)O)C[C@@H]1C(=O)O)C(=O)O ... 17.8

A: N[C@@H](CCC(=O)O)C(=O)O
B: N[C@@H](C[C@]1(C(=O)O)C[C@H]1C(=O)O)C(=O)O
Ask: EC50 comparison. Which is larger, A or B ? Selection: enter the item's label.
Result: A

---

biological target: Metabotropic glutamate receptor 8 (Rattus norvegicus, UniProt P70579); experiment: Agonist activity at rat mGlu8 receptor expressed in HEK293 cells assessed as IP1 accumulation by IP-One functional assay; type: cell-based; conditions: hek293
Sequence (P70579 whole entry): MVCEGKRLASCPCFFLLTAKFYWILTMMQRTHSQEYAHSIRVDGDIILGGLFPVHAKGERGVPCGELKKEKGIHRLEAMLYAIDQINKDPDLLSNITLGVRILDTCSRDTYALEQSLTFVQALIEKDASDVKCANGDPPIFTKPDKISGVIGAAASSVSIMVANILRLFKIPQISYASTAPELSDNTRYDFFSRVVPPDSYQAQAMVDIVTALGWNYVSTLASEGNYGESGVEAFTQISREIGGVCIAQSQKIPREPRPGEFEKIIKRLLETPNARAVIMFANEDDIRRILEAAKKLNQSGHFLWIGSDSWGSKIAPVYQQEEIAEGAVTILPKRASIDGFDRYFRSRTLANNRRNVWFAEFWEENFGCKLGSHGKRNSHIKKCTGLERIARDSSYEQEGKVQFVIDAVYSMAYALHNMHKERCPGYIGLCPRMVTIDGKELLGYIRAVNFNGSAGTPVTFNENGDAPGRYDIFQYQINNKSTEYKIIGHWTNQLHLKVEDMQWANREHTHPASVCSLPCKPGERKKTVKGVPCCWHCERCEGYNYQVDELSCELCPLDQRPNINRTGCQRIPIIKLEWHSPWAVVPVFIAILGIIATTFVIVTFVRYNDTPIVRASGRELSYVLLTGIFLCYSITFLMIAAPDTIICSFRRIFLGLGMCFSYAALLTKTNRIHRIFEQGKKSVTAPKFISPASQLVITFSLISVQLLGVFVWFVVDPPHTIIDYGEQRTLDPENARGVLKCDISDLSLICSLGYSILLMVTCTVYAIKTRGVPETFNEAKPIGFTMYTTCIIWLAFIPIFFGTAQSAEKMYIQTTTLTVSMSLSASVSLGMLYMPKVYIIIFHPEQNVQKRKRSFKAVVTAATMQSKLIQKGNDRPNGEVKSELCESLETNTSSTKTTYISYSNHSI
Measured endpoint: pEC50
In simple prose, pEC50 is minus the logarithm base ten of a concentration in moles per litre.

Per the record, N[C@@H](CCP(=O)(O)O)C(=O)O has pEC50 of 7.15

---

pEC50: recorded values
target: UniProt:P31421; assay: Agonist activity at rat mGlu2 receptor expressed in HEK293 cells by [35S]GTP-gamma binding assay; assay type: cell-based; details: read-out: EC50
pEC50: −log10 of the molar value.

Example entries and their recorded answers appear below.
1. N[C@@H](C[C@@H](CCC(=O)O)C(=O)O)C(=O)O ... 5.79
2. COC(=O)CC[C@H](C[C@H](N)C(=O)O)C(=O)O ... < 3.00
3. N[C@@H](C[C@@H](CCC(=O)NO)C(=O)O)C(=O)O ... < 3.00

Entry NCCC[C@H](C[C@H](N)C(=O)O)C(=O)O ; assay system UniProt:P31421; pEC50 recorded at 4.31

pEC50 of NCC[C@H](C[C@H](N)C(=O)O)C(=O)O , assay on UniProt:P31421, is < 3.00

Record N[C@@H](C[C@@H](CC(=O)O)C(=O)O)C(=O)O ; system UniProt:P31421; pEC50 = < 3.00

Taken from ChEMBL document CHEMBL3784960.
